- Measured target: GSK3B (human) (UniProt P49841)
- Procedure details: KINOMEscan competition binding
Value kind: Kd
Value and unit, in that order.

Note Kd for the molecule shown: "COc1cc2ncnc(Oc3cccc(NC(=O)Nc4cc(C(C)(C)C(F)(F)F)on4)c3)c2cc1OC"
29 µM

---

Value kind: pKd
Please note pKd is a logarithmic value: minus log10 of concentration in mol/L. Answer with that number alone.

Write down measured pKd (STK10 (human) (UniProt O94804)) for this molecule. "COc1cc2ncnc(Oc3cccc(NC(=O)Nc4cc(C(C)(C)C(F)(F)F)on4)c3)c2cc1OC"
8.77

---

Value kind: pKd
Please note pKd is a logarithmic value: minus log10 of concentration in mol/L. Answer with that number alone.

Write down measured pKd (MAP4K3 (human)) for this compound. "COc1cc2ncnc(Oc3cccc(NC(=O)Nc4cc(C(C)(C)C(F)(F)F)on4)c3)c2cc1OC"
5.64

---

- Measured target: EPHB1 (human)
Value kind: Kd (nM)
Field format: number, assumed nM, no unit text.

Note Kd for the compound shown: "COc1cc2ncnc(Oc3cccc(NC(=O)Nc4cc(C(C)(C)C(F)(F)F)on4)c3)c2cc1OC"
150

---

Value kind: pKd
Please note pKd is a logarithmic value: minus log10 of concentration in mol/L. Answer with that number alone.

Write down measured pKd (CDK15 (human) (UniProt Q96Q40)) for this molecule. "COc1cc2ncnc(Oc3cccc(NC(=O)Nc4cc(C(C)(C)C(F)(F)F)on4)c3)c2cc1OC"
6.37

---

- Measured target: CSNK1G1 (human)
Value kind: Kd (µM)
Field format: number, assumed µM, no unit text.

Note Kd for the compound shown: "COc1cc2ncnc(Oc3cccc(NC(=O)Nc4cc(C(C)(C)C(F)(F)F)on4)c3)c2cc1OC"
36

---

- Measured target: PRKCD (human)
Value kind: pKd
Please note pKd is a logarithmic value: minus log10 of concentration in mol/L. Answer with that number alone.

Note pKd for the compound shown: "COc1cc2ncnc(Oc3cccc(NC(=O)Nc4cc(C(C)(C)C(F)(F)F)on4)c3)c2cc1OC"
5.92

---

- Measured target: JAK1 JH1 catalytic (human) (UniProt P23458)
- Sequence (P23458 whole entry, looked up): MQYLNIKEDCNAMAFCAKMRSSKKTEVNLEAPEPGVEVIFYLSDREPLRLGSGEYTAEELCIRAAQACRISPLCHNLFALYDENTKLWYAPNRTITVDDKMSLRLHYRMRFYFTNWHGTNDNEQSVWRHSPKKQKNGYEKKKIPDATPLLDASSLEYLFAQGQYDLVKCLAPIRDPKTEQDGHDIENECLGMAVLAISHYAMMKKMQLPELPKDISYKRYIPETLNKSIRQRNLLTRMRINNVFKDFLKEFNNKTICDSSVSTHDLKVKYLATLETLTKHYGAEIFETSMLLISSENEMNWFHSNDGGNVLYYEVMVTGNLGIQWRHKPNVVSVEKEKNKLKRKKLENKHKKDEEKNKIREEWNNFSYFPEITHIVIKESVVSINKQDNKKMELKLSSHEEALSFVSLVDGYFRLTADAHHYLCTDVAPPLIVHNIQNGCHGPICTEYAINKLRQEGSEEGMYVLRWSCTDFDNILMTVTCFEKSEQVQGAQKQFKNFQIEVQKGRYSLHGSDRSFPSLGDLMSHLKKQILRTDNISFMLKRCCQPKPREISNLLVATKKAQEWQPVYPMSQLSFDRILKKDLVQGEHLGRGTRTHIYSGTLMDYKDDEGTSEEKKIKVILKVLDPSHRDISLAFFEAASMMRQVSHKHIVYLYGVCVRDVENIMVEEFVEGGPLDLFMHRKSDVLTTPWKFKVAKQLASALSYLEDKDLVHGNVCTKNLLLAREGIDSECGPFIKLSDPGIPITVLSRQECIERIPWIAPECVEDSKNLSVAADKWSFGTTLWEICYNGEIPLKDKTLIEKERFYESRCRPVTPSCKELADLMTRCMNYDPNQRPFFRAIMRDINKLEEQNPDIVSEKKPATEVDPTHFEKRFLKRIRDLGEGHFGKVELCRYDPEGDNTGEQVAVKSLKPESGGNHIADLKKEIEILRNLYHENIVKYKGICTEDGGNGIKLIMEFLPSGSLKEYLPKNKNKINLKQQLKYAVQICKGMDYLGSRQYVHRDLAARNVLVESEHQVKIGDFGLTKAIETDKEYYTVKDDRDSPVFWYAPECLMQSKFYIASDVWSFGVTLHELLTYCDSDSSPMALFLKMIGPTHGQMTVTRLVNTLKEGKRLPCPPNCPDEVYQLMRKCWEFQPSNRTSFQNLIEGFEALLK
- Procedure details: KINOMEscan competition binding
Value kind: pKd
Please note pKd is a logarithmic value: minus log10 of concentration in mol/L. Answer with that number alone.

Note pKd for the molecule shown: "COc1cc2ncnc(Oc3cccc(NC(=O)Nc4cc(C(C)(C)C(F)(F)F)on4)c3)c2cc1OC"
4.54

---

- Measured target: ERN1 (human) (UniProt O75460)
- Sequence (O75460 whole entry, looked up): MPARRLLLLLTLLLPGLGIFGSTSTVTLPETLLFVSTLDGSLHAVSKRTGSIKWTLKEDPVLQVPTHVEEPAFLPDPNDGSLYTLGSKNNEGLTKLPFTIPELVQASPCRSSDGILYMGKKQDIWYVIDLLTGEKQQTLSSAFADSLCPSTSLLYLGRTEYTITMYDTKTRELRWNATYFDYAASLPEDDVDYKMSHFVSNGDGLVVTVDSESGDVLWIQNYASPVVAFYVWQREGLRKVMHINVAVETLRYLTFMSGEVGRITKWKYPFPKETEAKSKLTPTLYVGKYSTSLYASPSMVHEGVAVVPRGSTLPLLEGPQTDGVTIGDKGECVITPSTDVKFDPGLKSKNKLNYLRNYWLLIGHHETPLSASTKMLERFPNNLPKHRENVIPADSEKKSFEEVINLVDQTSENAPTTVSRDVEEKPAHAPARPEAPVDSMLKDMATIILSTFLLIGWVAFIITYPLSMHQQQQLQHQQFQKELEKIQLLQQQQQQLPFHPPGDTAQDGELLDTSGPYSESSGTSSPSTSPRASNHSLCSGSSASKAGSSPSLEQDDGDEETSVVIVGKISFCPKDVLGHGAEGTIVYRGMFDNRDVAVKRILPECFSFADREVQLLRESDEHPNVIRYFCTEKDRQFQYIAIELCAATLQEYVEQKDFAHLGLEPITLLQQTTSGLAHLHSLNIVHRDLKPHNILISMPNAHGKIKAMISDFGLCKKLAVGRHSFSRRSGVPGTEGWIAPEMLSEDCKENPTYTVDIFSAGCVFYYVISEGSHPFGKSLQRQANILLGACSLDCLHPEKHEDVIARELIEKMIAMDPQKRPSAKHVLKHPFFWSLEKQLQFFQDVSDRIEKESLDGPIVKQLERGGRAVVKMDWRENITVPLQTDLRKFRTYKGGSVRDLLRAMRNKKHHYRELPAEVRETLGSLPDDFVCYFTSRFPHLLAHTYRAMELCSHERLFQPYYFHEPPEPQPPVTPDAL
Value kind: Kd (µM)
Field format: number, assumed µM, no unit text.

Note Kd for the molecule shown: "COc1cc2ncnc(Oc3cccc(NC(=O)Nc4cc(C(C)(C)C(F)(F)F)on4)c3)c2cc1OC"
19

---

- Measured target: ROCK2 (human)
Value kind: pKd
Please note pKd is a logarithmic value: minus log10 of concentration in mol/L. Answer with that number alone.

Note pKd for the molecule shown: "COc1cc2ncnc(Oc3cccc(NC(=O)Nc4cc(C(C)(C)C(F)(F)F)on4)c3)c2cc1OC"
4.43

---

Value kind: Kd
Value and unit, in that order.

Write down measured Kd (UniProt:P15056) for this compound. "COc1cc2ncnc(Oc3cccc(NC(=O)Nc4cc(C(C)(C)C(F)(F)F)on4)c3)c2cc1OC"
36 nM

---

Value kind: pKd
Please note pKd is a logarithmic value: minus log10 of concentration in mol/L. Answer with that number alone.

Write down measured pKd (PIM3 (human) (UniProt Q86V86)) for this molecule. "COc1cc2ncnc(Oc3cccc(NC(=O)Nc4cc(C(C)(C)C(F)(F)F)on4)c3)c2cc1OC"
4.89

---

- Measured target: INSRR (human) (UniProt P14616)
- Sequence (P14616 whole entry, looked up): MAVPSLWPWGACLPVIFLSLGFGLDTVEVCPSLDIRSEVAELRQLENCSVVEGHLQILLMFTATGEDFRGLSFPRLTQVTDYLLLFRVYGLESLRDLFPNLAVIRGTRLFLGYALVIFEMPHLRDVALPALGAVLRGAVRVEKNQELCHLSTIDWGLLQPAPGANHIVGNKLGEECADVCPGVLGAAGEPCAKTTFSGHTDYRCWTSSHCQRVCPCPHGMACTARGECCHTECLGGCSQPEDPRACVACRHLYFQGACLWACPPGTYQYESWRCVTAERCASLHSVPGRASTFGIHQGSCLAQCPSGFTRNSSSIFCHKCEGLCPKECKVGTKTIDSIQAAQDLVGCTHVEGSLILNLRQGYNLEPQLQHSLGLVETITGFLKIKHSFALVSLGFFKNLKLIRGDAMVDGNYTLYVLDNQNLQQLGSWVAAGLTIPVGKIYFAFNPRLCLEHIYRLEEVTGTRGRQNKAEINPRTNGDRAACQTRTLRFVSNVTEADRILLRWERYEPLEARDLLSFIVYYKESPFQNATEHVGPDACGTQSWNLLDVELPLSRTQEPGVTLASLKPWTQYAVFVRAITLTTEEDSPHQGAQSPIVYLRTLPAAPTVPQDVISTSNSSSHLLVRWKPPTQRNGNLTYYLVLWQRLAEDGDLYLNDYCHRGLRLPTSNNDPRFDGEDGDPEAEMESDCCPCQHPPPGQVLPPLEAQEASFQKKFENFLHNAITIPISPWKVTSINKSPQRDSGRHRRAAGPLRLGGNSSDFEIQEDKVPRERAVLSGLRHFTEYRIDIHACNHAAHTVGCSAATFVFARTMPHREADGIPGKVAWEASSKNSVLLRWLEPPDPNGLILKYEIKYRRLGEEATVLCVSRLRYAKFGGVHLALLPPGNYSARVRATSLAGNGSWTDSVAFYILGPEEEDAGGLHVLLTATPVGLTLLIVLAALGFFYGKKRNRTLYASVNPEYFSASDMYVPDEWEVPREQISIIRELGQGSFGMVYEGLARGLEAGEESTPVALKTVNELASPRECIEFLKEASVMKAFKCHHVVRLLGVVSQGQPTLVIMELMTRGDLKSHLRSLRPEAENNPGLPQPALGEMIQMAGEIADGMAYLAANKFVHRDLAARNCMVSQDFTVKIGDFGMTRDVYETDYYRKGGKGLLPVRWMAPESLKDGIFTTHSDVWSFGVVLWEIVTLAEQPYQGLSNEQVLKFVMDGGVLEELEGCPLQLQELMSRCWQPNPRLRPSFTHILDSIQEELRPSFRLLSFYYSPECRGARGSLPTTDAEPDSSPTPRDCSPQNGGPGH
Value kind: Kd (µM)
Field format: number, assumed µM, no unit text.

Note Kd for the compound shown: "COc1cc2ncnc(Oc3cccc(NC(=O)Nc4cc(C(C)(C)C(F)(F)F)on4)c3)c2cc1OC"
31

---

- Measured target: NEK5 (human) (UniProt Q6P3R8)
Value kind: Kd (µM)
Field format: number, assumed µM, no unit text.

Note Kd for the compound shown: "COc1cc2ncnc(Oc3cccc(NC(=O)Nc4cc(C(C)(C)C(F)(F)F)on4)c3)c2cc1OC"
28

---

Value kind: Kd (µM)
Field format: number, assumed µM, no unit text.

Write down measured Kd (STK4 (human)) for this compound. "COc1cc2ncnc(Oc3cccc(NC(=O)Nc4cc(C(C)(C)C(F)(F)F)on4)c3)c2cc1OC"
30

---

- Measured target: CAMKK1 (human)
Value kind: Kd (µM)
Field format: number, assumed µM, no unit text.

Write down measured Kd (CAMKK1 (human)) for this compound. "COc1cc2ncnc(Oc3cccc(NC(=O)Nc4cc(C(C)(C)C(F)(F)F)on4)c3)c2cc1OC"
16

---

- Measured target: MAPK10 (human) (UniProt P53779)
- Sequence (P53779 whole entry, looked up): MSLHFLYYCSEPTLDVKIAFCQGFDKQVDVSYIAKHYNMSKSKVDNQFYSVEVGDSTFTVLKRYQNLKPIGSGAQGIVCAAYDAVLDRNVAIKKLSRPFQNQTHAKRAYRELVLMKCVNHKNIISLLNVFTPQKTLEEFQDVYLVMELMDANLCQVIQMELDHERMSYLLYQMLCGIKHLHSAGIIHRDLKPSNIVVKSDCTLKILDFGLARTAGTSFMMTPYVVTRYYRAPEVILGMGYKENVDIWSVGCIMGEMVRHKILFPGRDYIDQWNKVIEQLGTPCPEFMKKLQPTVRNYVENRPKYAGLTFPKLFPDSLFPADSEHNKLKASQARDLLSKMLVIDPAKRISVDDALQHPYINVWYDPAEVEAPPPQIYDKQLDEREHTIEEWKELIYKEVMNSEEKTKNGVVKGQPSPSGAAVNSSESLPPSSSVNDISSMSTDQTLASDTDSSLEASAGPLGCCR
Value kind: Kd (nM)
Field format: number, assumed nM, no unit text.

Note Kd for the molecule shown: "COc1cc2ncnc(Oc3cccc(NC(=O)Nc4cc(C(C)(C)C(F)(F)F)on4)c3)c2cc1OC"
88

---

- Measured target: CLK4 (human)
Value kind: Kd (µM)
Field format: number, assumed µM, no unit text.

Note Kd for the molecule shown: "COc1cc2ncnc(Oc3cccc(NC(=O)Nc4cc(C(C)(C)C(F)(F)F)on4)c3)c2cc1OC"
16

---

Value kind: pKd
Please note pKd is a logarithmic value: minus log10 of concentration in mol/L. Answer with that number alone.

Write down measured pKd (UniProtKB P16234) for this molecule. "COc1cc2ncnc(Oc3cccc(NC(=O)Nc4cc(C(C)(C)C(F)(F)F)on4)c3)c2cc1OC"
8.27

---

- Measured target: MAP3K10 (human)
- Procedure details: KINOMEscan competition binding
Value kind: Kd

Note Kd for the molecule shown: "COc1cc2ncnc(Oc3cccc(NC(=O)Nc4cc(C(C)(C)C(F)(F)F)on4)c3)c2cc1OC"
5.6 µM

---

- Measured target: IRAK1 (human)
- Procedure details: KINOMEscan competition binding
Value kind: Kd (µM)
Field format: number, assumed µM, no unit text.

Note Kd for the compound shown: "COc1cc2ncnc(Oc3cccc(NC(=O)Nc4cc(C(C)(C)C(F)(F)F)on4)c3)c2cc1OC"
9.6

---

- Measured target: UniProt Q8NFD2
Value kind: pKd
Please note pKd is a logarithmic value: minus log10 of concentration in mol/L. Answer with that number alone.

Write down measured pKd (UniProt Q8NFD2) for this compound. "COc1cc2ncnc(Oc3cccc(NC(=O)Nc4cc(C(C)(C)C(F)(F)F)on4)c3)c2cc1OC"
5.34

---

- Measured target: BRAF (human), P15056 [V600E]
- Sequence (P15056 whole entry V600E, looked up): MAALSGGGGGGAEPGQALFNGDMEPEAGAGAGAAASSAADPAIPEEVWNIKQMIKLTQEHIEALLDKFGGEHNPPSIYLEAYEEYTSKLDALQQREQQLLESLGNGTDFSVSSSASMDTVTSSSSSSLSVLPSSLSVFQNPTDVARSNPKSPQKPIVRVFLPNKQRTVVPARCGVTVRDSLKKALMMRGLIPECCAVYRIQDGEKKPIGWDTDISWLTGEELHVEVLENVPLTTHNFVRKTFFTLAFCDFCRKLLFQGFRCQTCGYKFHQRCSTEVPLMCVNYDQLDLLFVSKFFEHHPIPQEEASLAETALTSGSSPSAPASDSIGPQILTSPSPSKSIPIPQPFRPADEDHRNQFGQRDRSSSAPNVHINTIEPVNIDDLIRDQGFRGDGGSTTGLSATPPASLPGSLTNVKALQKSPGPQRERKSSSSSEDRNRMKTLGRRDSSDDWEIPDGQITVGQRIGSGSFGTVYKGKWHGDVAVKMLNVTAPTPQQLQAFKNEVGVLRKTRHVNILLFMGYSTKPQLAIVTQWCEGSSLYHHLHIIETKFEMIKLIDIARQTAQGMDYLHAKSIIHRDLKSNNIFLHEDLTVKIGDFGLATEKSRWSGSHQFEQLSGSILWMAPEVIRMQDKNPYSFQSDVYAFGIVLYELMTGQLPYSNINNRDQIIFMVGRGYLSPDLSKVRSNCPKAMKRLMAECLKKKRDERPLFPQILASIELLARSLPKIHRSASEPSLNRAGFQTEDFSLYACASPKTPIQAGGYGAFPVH
- Procedure details: KINOMEscan competition binding
Value kind: Kd (nM)
Field format: number, assumed nM, no unit text.

Note Kd for the molecule shown: "COc1cc2ncnc(Oc3cccc(NC(=O)Nc4cc(C(C)(C)C(F)(F)F)on4)c3)c2cc1OC"
14

---

- Measured target: EIF2AK4 KD2 (human), Q9P2K8 [S808G]
- Procedure details: KINOMEscan competition binding
Value kind: pKd
Please note pKd is a logarithmic value: minus log10 of concentration in mol/L. Answer with that number alone.

Note pKd for the molecule shown: "COc1cc2ncnc(Oc3cccc(NC(=O)Nc4cc(C(C)(C)C(F)(F)F)on4)c3)c2cc1OC"
5.36

---

- Measured target: ABL1 (human), P00519 [E255K]
- Procedure details: KINOMEscan competition binding
Value kind: Kd (nM)
Field format: number, assumed nM, no unit text.

Note Kd for the compound shown: "COc1cc2ncnc(Oc3cccc(NC(=O)Nc4cc(C(C)(C)C(F)(F)F)on4)c3)c2cc1OC"
6.5

---

- Measured target: MET (human), P08581 [Y1235D]
- Procedure details: KINOMEscan competition binding
Value kind: Kd (nM)
Field format: number, assumed nM, no unit text.

Note Kd for the compound shown: "COc1cc2ncnc(Oc3cccc(NC(=O)Nc4cc(C(C)(C)C(F)(F)F)on4)c3)c2cc1OC"
260

---

Value kind: pKd
Please note pKd is a logarithmic value: minus log10 of concentration in mol/L. Answer with that number alone.

Write down measured pKd (UniProt P22694) for this compound. "COc1cc2ncnc(Oc3cccc(NC(=O)Nc4cc(C(C)(C)C(F)(F)F)on4)c3)c2cc1OC"
4.70

---

Value kind: pKd
Please note pKd is a logarithmic value: minus log10 of concentration in mol/L. Answer with that number alone.

Write down measured pKd (PRKAA2 (human)) for this compound. "COc1cc2ncnc(Oc3cccc(NC(=O)Nc4cc(C(C)(C)C(F)(F)F)on4)c3)c2cc1OC"
4.55

---

- Measured target: STK35 (human) (UniProt Q8TDR2)
Value kind: Kd (nM)
Field format: number, assumed nM, no unit text.

Note Kd for the compound shown: "COc1cc2ncnc(Oc3cccc(NC(=O)Nc4cc(C(C)(C)C(F)(F)F)on4)c3)c2cc1OC"
470

Values compiled from the kinase profiling compilation of Christmann-Franck et al. (2016).
